Origin of the recorded values: paper PMC6222558

- Test system: EV71 BrCr strain (VR-1775, genotype A)
- Test Method Notes: CPE inhibition assay for anti-EV71, BrCr strain
- Assay type: cell-based, enterovirus 71 (EV71)
- Condition Context: Enterovirus A, EV71; Vero cells; CPE; calculated on the organic part; n = 3; read-out: BrCr Strain IC50
Reported Endpoint: IC50 (µM)
Answers are plain numbers, in µM.

COc1cccc(C(=O)COc2c(OC)ccc3cc4[n+](cc23)CCc2cc3c(cc2-4)OCO3)c1 ... 2.21
COc1cccc(C(=O)COc2c(OC)ccc3cc4[n+](cc23)CCc2cc(OC)c(OC)cc2-4)c1 ... 17.1
COc1ccc2cc3[n+](cc2c1OCC(=O)OCc1ccccc1)CCc1cc2c(cc1-3)OCO2 ... 8.52
COc1cccc(C(=O)COc2cc3c(cc2OC)-c2cc4ccc(OC)c(OC)c4c[n+]2CC3)c1 ... 9.2

Would you be so kind as to report IC50 for each listed record?
1. CCOC(=O)Oc1c(OC)ccc2cc3[n+](cc12)CCc1cc2c(cc1-3)OCO2
2. COc1cc2c(cc1OC)-c1cc3ccc(OC)c(OCC(=O)c4ccc(C(F)(F)F)cc4)c3c[n+]1CC2

1. 33.6
2. 66

Count: 2. Required value per item: IC50.
1. COc1cc2c(cc1OC)-c1cc3ccc(OC)c(OCC(=O)OCc4ccccc4)c3c[n+]1CC2
2. COc1ccc2cc3[n+](cc2c1OCC(=O)O)CCc1cc2c(cc1-3)OCO2

1: 81.1; 2: 145

----------
- System: EV71 BrCr strain (VR-1775, genotype A)
- Test Method Notes: CPE inhibition assay for anti-EV71, BrCr strain
- Assay type: cell-based, enterovirus 71 (EV71)
- Condition Context: Enterovirus A, EV71; Vero cells; CPE; calculated on the organic part; n = 3; read-out: BrCr Strain IC50
Reported Endpoint: pIC50
One number for each entry, as −log10 of the molar value.

Some molecules with recorded pIC50:
COc1ccc2cc3[n+](cc2c1OCC(=O)c1ccc(C(F)(F)F)cc1)CCc1cc2c(cc1-3)OCO2 [2g] ... 4.97
COc1ccc2cc3[n+](cc2c1OCC(=O)C(C)(C)C)CCc1cc2c(cc1-3)OCO2 [2c] ... 5.37

Provide each entry's pIC50 from the list below.
1. COc1ccc2cc3[n+](cc2c1OC(=O)OCc1ccccc1)CCc1cc2c(cc1-3)OCO2 [2h]
2. COc1ccc2cc3[n+](cc2c1O)CCc1cc2c(cc1-3)OCO2 [compound 1]

1. 4.32
2. 4.45

----------
- System: Vero cells
- Test Method Notes: Cytotoxicity assay (CCK) in Vero cells
- Format: cell-based, African green monkey
- Condition Context: African green monkey, 48 h
Binarize TC50 (median toxic concentration) at 80 µM; below is YES, at or above is NO.

COc1ccc2cc3[n+](cc2c1OC(=O)OCc1ccccc1)CCc1cc2c(cc1-3)OCO2 ... NO

# TODO verify TC50 (median toxic concentration) < 80 µM strictly for this molecule: `COc1cc2c(cc1OCC(=O)c1ccc(C(F)(F)F)cc1)CC[n+]1cc3c(OC)c(OC)ccc3cc1-2`
NO

Consider `COc1cc2c(cc1OC(=O)OCc1ccccc1)CC[n+]1cc3c(OC)c(OC)ccc3cc1-2` . Does its TC50 (median toxic concentration) lie strictly below 80 µM?
NO

Would you kindly verify if TC50 (median toxic concentration) of `COc1ccc2cc3[n+](cc2c1OCC(=O)OCC(C)C)CCc1cc2c(cc1-3)OCO2` is strictly less than 80 µM?
YES

State whether 80 µM exceeds TC50 (median toxic concentration) recorded for `COc1ccc2cc3[n+](cc2c1OCC(=O)c1ccc(C(F)(F)F)cc1)CCc1cc2c(cc1-3)OCO2` .
YES

----------
Counter-ions that a name gives are not always drawn.
Reported Endpoint: melting point

COc1ccc2cc3[n+](cc2c1OCC(=O)c1ccc(C)cc1)CCc1cc2c(cc1-3)OCO2 (as salt: chloride) ... 219 to 221 °C
COc1cccc(C(=O)COc2c(OC)ccc3cc4[n+](cc23)CCc2cc(OC)c(OC)cc2-4)c1 (as salt: chloride) ... 200 to 202 °C
COc1ccc2cc3[n+](cc2c1OCC(=O)C(C)(C)C)CCc1cc2c(cc1-3)OCO2 (as salt: chloride) ... 242 to 244 °C

Please turn your attention to the following entry.
So what does the record say about melting point for COc1cc2c(cc1OC)-c1cc3ccc(OC)c(OC(=O)OCc4ccccc4)c3c[n+]1CC2 (as salt: chloride) ?
98 to 100 °C

----------
For each entry below, report its melting point value.
Where a name gives a salt, the structure may show the parent alone.

Please review the entries below; each comes with its answer.
COc1cc2c(cc1OC)-c1cc3ccc(OC)c(OCC(=O)C(C)(C)C)c3c[n+]1CC2 (as salt: chloride) ... 227 to 229 °C
COc1cc2c(cc1OC)-c1cc3ccc(OC)c(OCC(=O)OCc4ccccc4)c3c[n+]1CC2 (as salt: chloride) ... 196 to 198 °C
COc1ccc2cc3[n+](cc2c1OC(=O)OCc1ccccc1)CCc1cc2c(cc1-3)OCO2 (as salt: chloride) ... 195 to 197 °C
CCOC(=O)Oc1c(OC)ccc2cc3[n+](cc12)CCc1cc2c(cc1-3)OCO2 (as salt: chloride) ... 218 to 220 °C
COc1cc2c(cc1OCC(=O)OCc1ccccc1)CC[n+]1cc3c(OC)c(OC)ccc3cc1-2 (as salt: chloride) ... 217 to 219 °C
CCOC(=O)COc1c(OC)ccc2cc3[n+](cc12)CCc1cc(OC)c(OC)cc1-3 (as salt: chloride) ... 204 to 206 °C
COc1cc2c(cc1OC(=O)OCc1ccccc1)CC[n+]1cc3c(OC)c(OC)ccc3cc1-2 (as salt: chloride) ... 140 to 142 °C
CCOC(=O)COc1cc2c(cc1OC)-c1cc3ccc(OC)c(OC)c3c[n+]1CC2 (as salt: chloride) ... 234 to 236 °C

Lab note: each compound below needs its melting point filled in.
1. COc1cc2c(cc1OCC(=O)c1ccc(C(F)(F)F)cc1)CC[n+]1cc3c(OC)c(OC)ccc3cc1-2 (as salt: chloride)
2. COc1ccc2cc3[n+](cc2c1OCC(=O)c1ccc(C(F)(F)F)cc1)CCc1cc2c(cc1-3)OCO2 (as salt: chloride)

["213 to 215 °C", "238 to 240 °C"]

----------
- Tested on: EV71 BrCr strain (VR-1775, genotype A)
- Test Method Notes: CPE inhibition assay for anti-EV71, BrCr strain
- Type: cell-based, enterovirus 71 (EV71)
- Condition Context: Enterovirus A, EV71; Vero cells; CPE; calculated on the organic part; n = 3; read-out: BrCr Strain IC50
Reported Endpoint: IC50 (µM)
Give bare numbers, in µM.

// below: answered molecules
COc1cc2c(cc1OC)-c1cc3ccc(OC)c(OCC(=O)C(C)(C)C)c3c[n+]1CC2 ... 144
COc1ccc2cc3[n+](cc2c1OCC(=O)OCC(C)C)CCc1cc2c(cc1-3)OCO2 ... 2.04

Here's the next entry for you.
Look up IC50 for this molecule: `COc1ccc2cc3[n+](cc2c1OCC(=O)c1ccc(C)cc1)CCc1cc2c(cc1-3)OCO2`
2.23

----------
Structures can show the parent of a compound that is named as a salt.
Kindly supply the reported melting point values for the records listed here.

COc1cc2c(cc1OC)-c1cc3ccc(OC)c(OCC(=O)c4ccc(C)cc4)c3c[n+]1CC2 (as salt: chloride) ... 228 to 230 °C

Need melting point for each of these compounds.
1. COc1cccc(C(=O)COc2cc3c(cc2OC)-c2cc4ccc(OC)c(OC)c4c[n+]2CC3)c1 (as salt: chloride)
2. COc1ccc2cc3[n+](cc2c1OCC(=O)OCC(C)C)CCc1cc2c(cc1-3)OCO2 (as salt: chloride)
3. COc1cc2c(cc1OC)-c1cc3ccc(OC)c(OCC(=O)c4ccc(C(F)(F)F)cc4)c3c[n+]1CC2 (as salt: chloride)

1: 218 to 220 °C; 2: 232 to 234 °C; 3: 240 to 242 °C

----------
- System: EV71 BrCr strain (VR-1775, genotype A)
- Test Method Notes: CPE inhibition assay for anti-EV71, BrCr strain
- Type: cell-based, enterovirus 71 (EV71)
- Condition Context: Enterovirus A, EV71; Vero cells; CPE; calculated on the organic part; n = 3; read-out: BrCr Strain IC50
pIC50: −log10 of the molar value.
Please note: true (1) applies when pIC50 is 4 or greater, and false (0) applies otherwise.

Consider the following illustrative entries.
COc1ccc2cc3[n+](cc2c1OC)CCc1cc2c(cc1-3)OCO2 ... true (1)
COc1cc2c(cc1OCC(=O)OCc1ccccc1)CC[n+]1cc3c(OC)c(OC)ccc3cc1-2 ... true (1)
CCOC(=O)COc1c(OC)ccc2cc3[n+](cc12)CCc1cc2c(cc1-3)OCO2 ... true (1)
COc1cc2c(cc1OC)-c1cc3ccc(OC)c(O)c3c[n+]1CC2 ... false (0)

Check this compound for pIC50 at or above 4: `COc1cc2c(cc1OCC(=O)C(C)(C)C)CC[n+]1cc3c(OC)c(OC)ccc3cc1-2`
true (1)
